Assay name: total protein half-life in vivo (active degradation + dilution); higher = more stable protein
Condition description: wild type E. coli NCM3722; growth: C-lim chemostat; doubling time 6 h
Property name: total protein half-life in vivo (h)
Reply numerically in h, unit not repeated.

input: So what's the measured total protein half-life in vivo for this one? MRNKPFYLLCAFLWLAVSHALAADSTITIRGYVRDNGCSVAAESTNFTVDLMENAAKQFNNIGATTPVVPFRILLSPCGNAVSAVKVGFTGVADSHNANLLALENTVSAASGLGIQLLNEQQNQIPLNAPSSALSWTTLTPGKPNTLNFYARLMATQVPVTAGHINATATFTLEYQ
output: 5.55

input: Quick one: total protein half-life in vivo for METKNLTIGERIRYRRKNLKHTQRSLAKALKISHVSVSQWERGDSEPTGKNLFALSKVLQCSPTWILFGDEDKQPTPPVEKPVALSPKELELLELFNALPESEQDTQLAEMRARVKNFNKLFEELLKARQRTNKR ?
output: 5.25

input: Which total protein half-life in vivo is reported for this sequence? MVKTQRVVITPGEPAGIGPDLVVQLAQREWPVELVVCADATLLTNRAAMLGLPLTLRPYSPNSPAQPQTAGTLTLLPVALRAPVTAGQLAVENGHYVVETLARACDGCLNGEFAALITGPVHKGVINDAGIPFTGHTEFFEERSQAKKVVMMLATEELRVALATTHLPLRDIADAITPALLHEVIAILHHDLRTKFGIAEPRILVCGLNPHAGEGGHMGTEEIDTIIPVLNELRAQGMKLNGPLPADTLFQPKYLDNADAVLAMYHDQGLPVLKYQGFGRGVNITLGLPFIRTSVDHGTALELAGRGKADVGSFITALNLAIKMIVNTQ
output: 5.54

input: State the recorded total protein half-life in vivo for this entry: MSWQEKINAALDARRAADALRRRYPVAQGAGRWLVADDRQYLNFSSNDYLGLSHHPQIIRAWQQGAEQFGIGSGGSGHVSGYSVVHQALEEELAEWLGYSRALLFISGFAANQAVIAAMMAKEDRIAADRLSHASLLEAASLSPSQLRRFAHNDVTHLARLLASPCPGQQMVVTEGVFSMDGDSAPLAEIQQVTQQHNGWLMVDDAHGTGVIGEQGRGSCWLQKVKPELLVVTFGKGFGVSGAAVLCSSTVADYLLQFARHLIYSTSMPPAQAQALRASLAVIRSDEGDARREKLAALITRFRAGVQDLPFTLADSCSAIQPLIVGDNSRALQLAEKLRQQGCWVTAIRPPTVPAGTARLRLTLTAAHEMQDIDRLLEVLHGNG
output: 5.16

input: Which measured total protein half-life in vivo value corresponds to MKALSPIAVLISALLLQGCVAAAVVGTAAVGTKAATDPRSVGTQVDDGTLEVRVNSALSKDEQIKKEARINVTAYQGKVLLVGQSPNAELSARAKQIAMGVDGANEVYNEIRQGQPIGLGEASNDTWITTKVRSQLLTSDLVKSSNVKVTTENGEVFLMGLVTEREAKAAADIASRVSGVKRVTTAFTFIK ?
output: 5.72

input: Could you share which total protein half-life in vivo value was measured for MNHSLKPWNTFGIDHNAQHIVCAEDEQQLLNAWQYATAEGQPVLILGEGSNVLFLEDYRGTVIINRIKGIEIHDEPDAWYLHVGAGENWHRLVKYTLQEGMPGLENLALIPGCVGSSPIQNIGAYGVELQRVCAYVDSVELATGKQVRLTAKECRFGYRDSIFKHEYQDRFAIVAVGLRLPKEWQPVLTYGDLTRLDPTTVTPQQVFNAVCHMRTTKLPDPKVNGNAGSFFKNPVVSAETAKALLSQFPTAPNYPQADGSVKLAAGWLIDQCQLKGMQIGGAAVHRQQALVLINEDNAKSEDVVQLAHHVRQKVGEKFNVWLEPEVRFIGASGEVSAVETIS ?
output: 4.83

input: Sample MLYVIYAQDKADSLEKRLSVRPAHLARLQLLHDEGRLLTAGPMPAVDSNDPGAAGFTGSTVIAEFESLEAAQAWADADPYVAAGVYEHVSVKPFKKVF [P0AB55] — what was its total protein half-life in vivo?
output: 4.96

====

Assay name: total protein half-life in vivo (active degradation + dilution); higher = more stable protein
Condition description: E. coli NCM3722 delta-lon; growth: N-lim chemostat; doubling time 6 h
So I've got a bunch of sequences here, and I need their total protein half-life in vivo values.
State the value with its unit after it.

input: Name the recorded total protein half-life in vivo for MSEIVIRHAETRDYEAIRQIHAQPEVYCNTLQVPHPSDHMWQERLADRPGIKQLVACIDGDVVGHLTIDVQQRPRRSHVADFGICVDSRWKNRGVASALMREMIEMCDNWLRVDRIELTVFVDNAPAIKVYKKYGFEIEGTGKKYALRNGEYVDAYYMARVK .
output: 4.56 h

input: Recorded total protein half-life in vivo of MIFLMTKDSFLLQGFWQLKDNHEMIKINSLSEIKKVGNKPFKVIIDTYHNHILDEEAIKFLEKLDAERIIVLAPYHISKLKAKAPIYFVSRKESIKNLLEITYGKHLPHKNSQLCFSHNQFKIMQLILKNKNESNITSTLNISQQTLKIQKFNIMYKLKLRRMSDIVTLGITSYF , please.
output: 1.03 h

input: Entry MSDDVALPLEFTDAAANKVKSLIADEDNPNLKLRVYITGGGCSGFQYGFTFDDQVNEGDMTIEKQGVGLVVDPMSLQYLVGGSVDYTEGLEGSRFIVTNPNAKSTCGCGSSFSI [P0ACC3] has what total protein half-life in vivo?
output: 3.62 h

input: Endpoint output: total protein half-life in vivo of MIRFEHVSKAYLGGRQALQGVTFHMQPGEMAFLTGHSGAGKSTLLKLICGIERPSAGKIWFSGHDITRLKNREVPFLRRQIGMIFQDHHLLMDRTVYDNVAIPLIIAGASGDDIRRRVSAALDKVGLLDKAKNFPIQLSGGEQQRVGIARAVVNKPAVLLADEPTGNLDDALSEGILRLFEEFNRVGVTVLMATHDINLISRRSYRMLTLSDGHLHGGVGHE [P0A9R7] . Value?
output: 5.62 h

input: Look up total protein half-life in vivo for this sequence: MHVKYLAGIVGAALLMAGCSSSNELSAAGQSVRIVDEQPGAECQLIGTATGKQSNWLSGQHGEEGGSMRGAANDLRNQAAAMGGNVIYGISSPSQGMLSSFVPTDSQIIGQVYKCPN [P0AF70]
output: 6.39 h

input: Query (sequence): MSTFKPLKTLTSRRQVLKAGLAALTLSGMSQAIAKDELLKTSNGHSKPKAKKSGGKRVVVLDPGHGGIDTGAIGRNGSKEKHVVLAIAKNVRSILRNHGIDARLTRSGDTFIPLYDRVEIAHKHGADLFMSIHADGFTNPKAAGASVFALSNRGASSAMAKYLSERENRADEVAGKKATDKDHLLQQVLFDLVQTDTIKNSLTLGSHILKKIKPVHKLHSRNTEQAAFVVLKSPSVPSVLVETSFITNPEEERLLGTAAFRQKIATAIAEGVISYFHWFDNQKAHSKKR ; field requested: total protein half-life in vivo
output: 4.98 h

input: Which total protein half-life in vivo value belongs to MTSLYLASGSPRRQELLAQLGVTFERIVTGIEEQRQPQESAQQYVVRLAREKARAGVAQTAKDLPVLGADTIVILNGEVLEKPRDAEHAAQMLRKLSGQTHQVMTAVALADSQHILDCLVVTDVTFRTLTDEDIAGYVASDEPLDKAGAYGIQGLGGCFVRKINGSYHAVVGLPLVETYELLSNFNALREKRDKHDG ?
output: 3.02 h

input: What does the record list as total protein half-life in vivo for MVKLAFPRELRLLTPSQFTFVFQQPQRAGTPQITILGRLNSLGHPRIGLTVAKKNVRRAHERNRIKRLTRESFRLRQHELPAMDFVVVAKKGVADLDNRALSEALEKLWRRHCRLARGS [P0A7Y8] ?
output: 6.46 h

====

Assay name: total protein half-life in vivo (active degradation + dilution); higher = more stable protein
Condition description: E. coli NCM3722 delta-smpB; growth: N-lim chemostat; doubling time 6 h
Property name: total protein half-life in vivo (h)
Quick reminder: number only, in h, skip the unit.

input: What value of total protein half-life in vivo has been reported for the following sequence? MKQTQRHNGIIELVKQQGYVSTEELVEHFSVSPQTIRRDLNELAEQNLILRHHGGAALPSSSVNTPWHDRKATQTEEKERIARKVAEQIPNGSTLFIDIGTTPEAVAHALLNHSNLRIVTNNLNVANTLMVKEDFRIILAGGELRSRDGGIIGEATLDFISQFRLDFGILGISGIDSDGSLLEFDYHEVRTKRAIIENSRHVMLVVDHSKFGRNAMVNMGSISMVDAVYTDAPPPVSVMQVLTDHHIQLELC [P0ACL0]
output: 5.52

input: Requested field: total protein half-life in vivo. Item: MNKFEDIRGVAFDLDGTLVDSAPGLAAAVDMALYALELPVAGEERVITWIGNGADVLMERALTWARQERATQRKTMGKPPVDDDIPAEEQVRILRKLFDRYYGEVAEEGTFLFPHVADTLGALQAKGLPLGLVTNKPTPFVAPLLEALDIAKYFSVVIGGDDVQNKKPHPDPLLLVAERMGIAPQQMLFVGDSRNDIQAAKAAGCPSVGLTYGYNYGEAIDLSQPDVIYQSINDLLPALGLPHSENQESKND
output: 3.05

input: Record request: total protein half-life in vivo value, item MINYGVVGVGYFGAELARFMNMHDNAKITCVYDPENGENIARELQCINMSSLDALVSSKLVDCVIVATPNYLHKEPVIKAAKNKKHVFCEKPIALSYEDCVDMVKACKEAGVTFMAGHIMNFFNGVQYARKLIKEGVIGEILSCHTKRNGWENKQERLSWKKMKEQSGGHLYHHIHELDCVQHLLGEIPETVTMIGGNLAHSGPGFGNEDDMLFMTLEFPSGKLATLEWGSAFNWPEHYVIINGTKGSIKIDMQETAGSLRIGGQTKHFLVHETQEEDDDRRKGNMTSEMDGAIAYGHPGKKTPLWLASLIRKETLFLHNILCGAKPEEDYIDLLNGEAAMSAIATADAATLSRSQDRKVKISEIIKHTSVM
output: 4.29

input: May I ask what total protein half-life in vivo has been recorded for MSDKFGEGRDPYLYPGLDIMRNRLNIRQQQRLEQAAYEMTALRAATIELGPLVRGLPHLRTIHRQLYQDIFDWAGQLREVDIYQGDTPFCHFAYIEKEGNALMQDLEEEGYLVGLEKAKFVERLAHYYCEINVLHPFRVGSGLAQRIFFEQLAIHAGYQLSWQGIEKEAWNQANQSGAMGDLTALQMIFSKVVSEAGESE ?
output: 4.69

input: Given the sequence MGLMNAFDSQTEDSSPAIGRNLRSRPLARKKLSEMVEEELEQMIRRREFGEGEQLPSERELMAFFNVGRPSVREALAALKRKGLVQINNGERARVSRPSADTIIGELSGMAKDFLSHPGGIAHFEQLRLFFESSLVRYAAEHATDEQIDLLAKALEINSQSLDNNAAFIRSDVDFHRVLAEIPGNPIFMAIHVALLDWLIAARPTVTDQALHEHNNVSYQQHIAIVDAIRRHDPDEADRALQSHLNSVSATWHAFGQTTNKKK [P0A8W0] , what is its reported total protein half-life in vivo?
output: 3.48

input: Recorded total protein half-life in vivo for MARARGRGRRDLKSEINIVPLLDVLLVLLLIFMATAPIITQSVEVDLPDATESQAVSSNDNPPVIVEVSGIGQYTVVVEKDRLERLPPEQVVAEVSSRFKANPKTVFLIGGAKDVPYDEIIKALNLLHSAGVKSVGLMTQPI [P0ABV6] , please?
output: 5.74

input: Entry MRYPVDVYTGKIQAYPEGKPSAIAKIQVDGELMLTELGLEGDEQAEKKVHGGPDRALCHYPREHYLYWAREFPEQAELFVAPAFGENLSTDGLTESNVYMGDIFRWGEALIQVSQPRSPCYKLNYHFDISDIAQLMQNTGKVGWLYSVIAPGKVSADAPLELVSRVSDVTVQEAAAIAWHMPFDDDQYHRLLSAAGLSKSWTRTMQKRRLSGKIEDFSRRLWGK : reported total protein half-life in vivo = ?
output: 4.46

input: Which total protein half-life in vivo value belongs to MGMIGYFAEIDSEKINQLLESTEKPLMDNIHDTLSGLRRLDIDKRWDFLHFGLTGTSAFDPAKNDPLSRAVLGEHSLEDGIDGFLGLTWNQELAATIDRLESLDRNELRKQFSIKRLNEMEIYPGVTFSEELEGQLFASIMLDMEKLISAYRRMLRQGNHALTVIVG ?
output: 1.91

input: Requested field: total protein half-life in vivo. Item: MDFSLTEEQELLLASIRELITTNFPEEYFRTCDQNGTYPREFMRALADNGISMLGVPEEFGGIPADYVTQMLALMEVSKCGAPAFLITNGQCIHSMRRFGSAEQLRKTAESTLETGDPAYALALTEPGAGSDNNSATTTYTRKNGKVYINGQKTFITGAKEYPYMLVLARDPQPKDPKKAFTLWWVDSSKPGIKINPLHKIGWHMLSTCEVYLDNVEVEESDMVGEEGMGFLNVMYNFEMERLINAARSTGFAECAFEDAARYANQRIAFGKPIGHNQMIQEKLALMAIKIDNMRNMVLKVAWQADQHQSLRTSAALAKLYCARTAMEVIDDAIQIMGGLGYTDEARVSRFWRDVRCERIGGGTDEIMIYVAGRQILKDYQNK [P0A9U8]
output: 1.03

input: Given MTMKKLLIIILPVLLSGCSAFNQLVERMQTDTLEYQCDEKPLTVKLNNPRQEVSFVYDNQLLHLKQGISASGARYTDGIYVFWSKGDEATVYKRDRIVLNNCQLQNPQR , state its recorded total protein half-life in vivo.
output: 5.45

input: What value of measured total protein half-life in vivo is listed for MSQFFYIHPDNPQQRLINQAVEIVRKGGVIVYPTDSGYALGCKIEDKNAMERICRIRQLPDGHNFTLMCRDLSELSTYSFVDNVAFRLMKNNTPGNYTFILKGTKEVPRRLLQEKRKTIGMRVPSNPIAQALLEALGEPMLSTSLMLPGSEFTESDPEEIKDRLEKQVDLIIHGGYLGQKPTTVIDLTDDTPVVVREGVGDVKPFL [P0AFR4] ?
output: 6.51

input: So what's the measured total protein half-life in vivo for this one? MSEALLNAGRQTLMLELQEASRLPERLGDDFVRAANIILHCEGKVVVSGIGKSGHIGKKIAATLASTGTPAFFVHPAEALHGDLGMIESRDVMLFISYSGGAKELDLIIPRLEDKSIALLAMTGKPTSPLGLAAKAVLDISVEREACPMHLAPTSSTVNTLMMGDALAMAVMQARGFNEEDFARSHPAGALGARLLNKVHHLMRRDDAIPQVALTASVMDAMLELSRTGLGLVAVCDAQQQVQGVFTDGDLRRWLVGGGALTTPVNEAMTVGGTTLQSQSRAIDAKEILMKRKITAAPVVDENGKLTGAINLQDFYQAGII
output: 4.33
